- Target Desc: Tyrosine-protein kinase Yes (Homo sapiens) (UniProt P07947)
- Sequence (P07947 whole entry, looked up): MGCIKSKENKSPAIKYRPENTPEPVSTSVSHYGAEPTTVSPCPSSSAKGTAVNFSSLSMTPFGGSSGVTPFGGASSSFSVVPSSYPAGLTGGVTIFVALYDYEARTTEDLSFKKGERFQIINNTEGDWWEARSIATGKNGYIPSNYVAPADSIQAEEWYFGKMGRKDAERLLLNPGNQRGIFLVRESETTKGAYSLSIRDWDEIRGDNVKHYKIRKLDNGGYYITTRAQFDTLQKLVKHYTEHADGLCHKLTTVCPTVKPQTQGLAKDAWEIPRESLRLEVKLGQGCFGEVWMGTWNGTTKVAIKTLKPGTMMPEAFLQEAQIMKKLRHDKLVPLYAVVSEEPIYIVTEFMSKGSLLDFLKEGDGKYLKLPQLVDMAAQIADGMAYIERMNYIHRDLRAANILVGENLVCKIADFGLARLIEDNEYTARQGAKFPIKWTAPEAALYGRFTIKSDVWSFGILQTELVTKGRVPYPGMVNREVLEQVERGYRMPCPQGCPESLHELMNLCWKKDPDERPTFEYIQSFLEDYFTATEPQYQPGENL
- Procedure Details: qHTS for small molecule inhibitors of Yes1 kinase: Primary Screen (AID 686947); further: nearly all actives have a fitted effect of over 60% in size
- Measurement Conditions: Yes1 kinase biochemical qHTS inhibition; series mostly up to 76.9 µM
Results filed as inconclusive are left out. Activity calls are given as the source filed them. The call rests on the fitted dose curve; in most records, active means well fitted inhibition curve with a large enough effect; inconclusive means small, poorly fitted or top-dose-only effect; inactive means no such curve, though single readings can be large or run the other way.
Bench note: report the call from yes (1) (active), no (0) (inactive)

Use the examples below as a reference point.
Prompt: Recorded test call requested for COCCn1c2c([n+](Cc3cnccn3)c1C)C(=O)c1ccccc1C2=O
Response: no (0)

Prompt: Recorded test call requested for COc1cc2ncn(-c3cc(OCc4ccccc4C(F)(F)F)c(C(N)=O)s3)c2cc1OC
Response: no (0)

Prompt: Recorded test call requested for CC(C)C[C@H](NC(=O)CNC(=O)c1cc(Cl)ccc1Cl)B(O)O
Response: no (0)

Prompt: Recorded test call requested for CC(=O)Nc1sc2c(c1-c1nc3ccccc3s1)CNC2
Response: no (0)

Prompt: Recorded test call requested for CC=C1NC(=O)[C@H]2CSSCCC=C[C@H](CC(=O)N[C@H](C(C)C)C(=O)N2)OC(=O)[C@H](C(C)C)NC1=O
Response: no (0)

Others:
Prompt: Recorded test call requested for Nc1ccccc1NC(=O)c1ccc(CNc2nccc(-c3cccnc3)n2)cc1
Response: no (0)

Prompt: Recorded test call requested for CC1(C)CCC(c2ccc(Cl)cc2)=C(CN2CCN(c3ccc(C(=O)NS(=O)(=O)c4ccc(N[C@H](CCN5CCOCC5)CSc5ccccc5)c(S(=O)(=O)C(F)(F)F)c4)cc3)CC2)C1
Response: yes (1)

---

- Test system: SKOV3
- Procedure Details: Primary qHTS to identify gynecologic anti-cancer compounds using libraries of approved drugs and bioactive compounds (AID 1345084); further: nearly all actives have a fitted effect of over 55% in size
- Measurement Conditions: Gynecologic cancer cell panel viability, ATPlite luminescence, 48 h; series mostly up to 57.5 µM
Inconclusive results are not listed. The source made the active and inactive calls. Calls follow the shape of the dose curve; as a rule, active = well fitted cell-killing curve with a large enough effect; inconclusive = small, poorly fitted or top-dose-only effect, or effect the other way; inactive = flat fitted curve, though single readings scatter.
Bench note: report the call from active, inactive

Prompt: Recorded test call requested for CNC(=O)CN1CCC(Oc2cc3c(Nc4cccc(Cl)c4F)ncnc3cc2OC)CC1
Response: active

Others:
Prompt: Recorded test call requested for CCCCOc1c(C(=O)c2c(F)cc(C)cc2F)cnc2n[nH]cc12
Response: inactive

Prompt: Recorded test call requested for O=C(c1cncc(Br)c1)N1CCC(N2CCCC2)CC1
Response: inactive

Prompt: Recorded test call requested for O=C(Nc1cc(C(F)(F)F)cc(C(F)(F)F)c1)c1cc(Cl)ccc1O
Response: active

Prompt: Recorded test call requested for O=C(O)CCCc1c[nH]c2ccccc12
Response: inactive

Prompt: Recorded test call requested for Cc1nc(N)ncc1-c1nc(N2CCOCC2)c2sc(C(C)(C)O)cc2n1
Response: active

Prompt: Recorded test call requested for C=CC(=O)Nc1cc2c(Nc3ccc(F)c(Cl)c3)ncnc2cc1OCCCN1CCOCC1
Response: active

Prompt: Recorded test call requested for Cc1cc(N2CCOCC2)cc2[nH]c(-c3c(NC[C@@H](O)c4cccc(Cl)c4)cc[nH]c3=O)nc12
Response: active

Prompt: Recorded test call requested for CS(=O)(=O)N1CCN(Cc2cc3nc(-c4cccc5[nH]ncc45)nc(N4CCOCC4)c3s2)CC1
Response: active

Prompt: Recorded test call requested for CCCCCCCCCC(=O)N[C@@H](Cc1c[nH]c2ccccc12)C(=O)N[C@H](CC(N)=O)C(=O)N[C@@H](CC(=O)O)C(=O)N[C@@H]1C(=O)NCC(=O)N[C@@H](CCCN)C(=O)N[C@@H](CC(=O)O)C(=O)N[C@H](C)C(=O)N[C@@H](CC(=O)O)C(=O)NCC(=O)N[C@H](CO)C(=O)N[C@@H]([C@@H](C)CC(=O)O)C(=O)N[C@@H](CC(=O)c2ccccc2N)C(=O)O[C@@H]1C
Response: inactive

---

- Procedure Details: qHTS Screen of the MIPE 4.0 Collection Against Ewings Sarcoma (EW8) (AID 1259255); further: nearly all actives have a fitted effect of over 35% in size
- Measurement Conditions: EW8 Ewing sarcoma viability, CellTiter-Glo, 48 h; series mostly up to 45.8 µM
Inconclusive results are not listed. Calls of active or inactive are those of the source. Calls come from the whole dose curve; as a rule, active = well fitted inhibition curve with a large enough effect; inconclusive = small, poorly fitted or top-dose-only effect; inactive = no such curve, though single readings can be large or run the other way.
Bench note: report the call from active, inactive

Prompt: Recorded test call requested for Cc1ccc(S(=O)(=O)Nc2cc(Cl)ccc2C(=O)Nc2nc(-c3ccccc3)cs2)cc1
Response: active

Prompt: Recorded test call requested for NC(=O)c1c(OCc2c(F)cc(Br)cc2F)nsc1NC(=O)NCCCCN1CCCC1
Response: active

Others:
Prompt: Recorded test call requested for CC(C)[C@H](C(=O)Nc1ccc(C(=O)NO)cc1)c1ccccc1
Response: active

Prompt: Recorded test call requested for CCNC(=O)Nc1ccc2ncc(Nc3ccc(C)cc3)nc2n1
Response: active

---

- Procedure Details: qHTS Assay for Lipid Storage Modulators (AID 1519)
- Measurement Conditions: Drosophila S3 cells, BODIPY lipid droplet/cell ratio, laser cytometry; measured here: cell count channel max response; cells loaded with oleic acid
Results filed as inconclusive are left out.
max response by entry:
# number only, unit % dropped from output

// worked examples, max response included
Prompt: Endpoint output: max response of CC[C@H](CO)Nc1nc(NCc2ccccc2)c2ncn(C(C)C)c2n1 . Value?
Response: 73

Prompt: Endpoint output: max response of C[C@H]1C[C@@H]2[C@@H]([C@@H](O)C[C@@]3(C)[C@H]2CC[C@]3(O)C(=O)CO)[C@@]2(C)C=CC(=O)C=C12 . Value?
Response: -15.5

Prompt: Endpoint output: max response of O=c1c2ccccc2nc2n1CCc1c-2[nH]c2ccccc12 . Value?
Response: 45

With those in mind, consider the next molecule.
Prompt: Endpoint output: max response of Cc1coc2c1C(=O)C(=O)c1c-2ccc2c1CCCC2(C)C . Value?
Response: 16.1

---

- Procedure Details: Quantitative High-Throughput drug screen in 47 multiple myeloma cell lines against the NCATS MIPE library collection: MMM1_PLB cell viability assay (AID 1918976); further: nearly all actives have a fitted effect of over 35% in size
- Measurement Conditions: MMM1 myeloma cells viability, CellTiter-Glo, 48 h; series mostly up to 45.8 µM
Records with an inconclusive call do not appear. Activity calls are given as the source filed them. Calls follow the shape of the dose curve; as a rule, active = well fitted cell-killing curve with a large enough effect; inconclusive = small, poorly fitted or top-dose-only effect, or effect the other way; inactive = no such curve, though single readings can be large or run the other way.
Bench note: report the call from 1 for active, 0 for inactive

Use the examples below as a reference point.
Prompt: Recorded test call requested for CCC(=C(c1ccccc1)c1ccc(OCCN(C)C)cc1)c1ccccc1
Response: 1

Prompt: Recorded test call requested for Cn1cc(-c2ccncc2)c(-c2ccc(OCc3ccc4ccccc4n3)cc2)n1
Response: 1

Prompt: Recorded test call requested for O=C(C=Cc1cccc(S(=O)(=O)Nc2ccccc2)c1)NO
Response: 1

Others:
Prompt: Recorded test call requested for CN(C)CCCN=c1c2ccccc2n(C)c2[nH]c(=O)n(C)c(=O)c12
Response: 1

Prompt: Recorded test call requested for CNC(=O)c1ccccc1Nc1nc(Nc2ccc(N3CCOCC3)cc2OC)ncc1Cl
Response: 1

Prompt: Recorded test call requested for CCCCc1nc2cc(C=CC(=O)NO)ccc2n1CCN(CC)CC
Response: 1

---

- Target Desc: Tyrosine-protein kinase Yes (Homo sapiens) (UniProt P07947)
- Procedure Details: qHTS for small molecule inhibitors of Yes1 kinase: Primary Screen (AID 686947); further: nearly all actives have a fitted effect of over 60% in size
- Measurement Conditions: Yes1 kinase biochemical qHTS inhibition; series mostly up to 76.9 µM
Results filed as inconclusive are left out. Calls of active or inactive are those of the source. Calls follow the shape of the dose curve; as a rule, active = well fitted inhibition curve with a large enough effect; inconclusive = small, poorly fitted or top-dose-only effect; inactive = no such curve, though single readings can be large or run the other way.
Bench note: report the call from active, inactive

Use the examples below as a reference point.
Prompt: Recorded test call requested for O=C(NCCS(=O)(=O)c1ccc(C(F)(F)F)cn1)c1ccc(Cl)cc1
Response: inactive

Prompt: Recorded test call requested for Nc1nc(-c2nn(Cc3ccccc3F)c3ncccc23)nc(N)c1N1CCOCC1
Response: inactive

Prompt: Recorded test call requested for Cc1cn(-c2cc(NC(=O)c3ccc(C)c(Nc4nccc(-c5cccnc5)n4)c3)cc(C(F)(F)F)c2)cn1
Response: inactive

Others:
Prompt: Recorded test call requested for CC(C)CC(=O)Nc1n[nH]c2c1CN(C(=O)C1CCN(C)CC1)C2(C)C
Response: active

Prompt: Recorded test call requested for CCC(=C(c1ccccc1)c1ccc(OCCN(C)C)cc1)c1ccccc1
Response: inactive

---

- Procedure Details: Quantitative High-Throughput drug screen in 47 multiple myeloma cell lines against the NCATS MIPE library collection: Karpas25_ECACC cell viability assay (AID 1918968; further: nearly all actives have a fitted effect of over 35% in size)
- Measurement Conditions: Karpas25 myeloma viability, CellTiter-Glo ATP, 48 h; series mostly up to 45.8 µM
Inconclusive results are not listed. Active and inactive are the calls of the source. The call rests on the fitted dose curve; in most records, active means well fitted cell-killing curve with a large enough effect; inconclusive means small, poorly fitted or top-dose-only effect, or effect the other way; inactive means no such curve, though single readings can be large or run the other way.
Bench note: report the call from y for active, n for inactive

Use the examples below as a reference point.
Prompt: Recorded test call requested for Nc1cccc(-c2cc3c(Oc4cccc(O)c4)ncnc3[nH]2)c1
Response: y

Prompt: Recorded test call requested for Cc1[nH]nc2ccc(-c3cncc(OC[C@@H](N)Cc4ccccc4)c3)cc12
Response: y

Prompt: Recorded test call requested for CCC1=C[C@@H]2CN(C1)Cc1c([nH]c3ccccc13)[C@@](C(=O)OC)(c1cc3c(cc1OC)N(C)[C@@H]1[C@@](O)(C(=O)OC)[C@H](OC(C)=O)[C@]4(CC)C=CCN5CC[C@]31[C@@H]54)C2
Response: y

Prompt: Recorded test call requested for Cc1cn(-c2cc(NC(=O)c3ccc(C)c(Nc4nccc(-c5cccnc5)n4)c3)cc(C(F)(F)F)c2)cn1
Response: n

Prompt: Recorded test call requested for CC(C)c1noc(N2CCC(COc3ccc(-c4ccc(S(C)(=O)=O)cc4)nc3)CC2)n1
Response: y

Others:
Prompt: Recorded test call requested for C[C@@H]1COC(Nc2ccc3ncnc(Nc4ccc(OCc5nccs5)c(Cl)c4)c3c2)=N1
Response: y

Prompt: Recorded test call requested for c1cc(-c2cnn3cc(-c4ccc(OCCN5CCCCC5)cc4)cnc23)ccn1
Response: y

Prompt: Recorded test call requested for Cc1cc(C(=O)N2CCN(c3cccc(Cl)c3)CC2)n(-c2ccccc2)n1
Response: y

Prompt: Recorded test call requested for CC[C@H](CO)Nc1nc(NCc2ccccc2)c2ncn(C(C)C)c2n1
Response: y

Prompt: Recorded test call requested for C=CC(=O)Nc1cc2c(Nc3ccc(F)c(Cl)c3)ncnc2cc1OCCCN1CCOCC1
Response: y

Prompt: Recorded test call requested for CC[C@@H]1C(=O)N(C)c2cnc(Nc3ccc(C(=O)NC4CCC(N5CCN(CC6CC6)CC5)CC4)cc3OC)nc2N1C(C)C (stereo partly drawn)
Response: y

Numbers sourced from PubChem BioAssay (NCATS).
